measurement_protocol: In vivo formation of NAFB1 and NAHFB1 in rat kidney and liver (HPLC-ESI-MS/MS)
Parameters: unit not given here
condition_info: Kidney; treatment HFB1 1 mg/kg BW ip, 5 days
Description: The study protocol was approved by the Institutional Animal Care and Use Committee, Richard B. Russell Agricultural Research Center, Athens, GA. […] In order to compare the effects of FB1 and HFB1, dosages will be expressed as molar concentrations and, on this basis, the high dose of FB1 is roughly equivalent to that of the positive control dose of HFB1. […]
measure: N-acyl-derivative in tissue sample, mean

Recorded results for 4 compounds are shown here.
CCCCCCCCCCCCCCCCCCCCCC(=O)NC(C)C(O)CC(O)CCCCC(O)CC(C)CC(OC(=O)CC(CC(=O)O)C(=O)O)C(OC(=O)CC(CC(=O)O)C(=O)O)C(C)CCCC (centres unmarked) : 0,0
CCCCCCCCCCCCCCCCCCCCCCCC(=O)N[C@@H](C)[C@@H](O)C[C@H](O)CCCC[C@@H](O)C[C@H](C)C[C@H](O)[C@H](O)[C@H](C)CCCC : 2,9
CCCCCCCCCCCCCCCC(=O)N[C@@H](C)[C@@H](O)C[C@H](O)CCCC[C@@H](O)C[C@H](C)C[C@H](O)[C@H](O)[C@H](C)CCCC : 30,0
CCCCCCCCCCCCCCCCCCCCCCCC(=O)NC(C)C(O)CC(O)CCCCC(O)CC(C)CC(OC(=O)CC(CC(=O)O)C(=O)O)C(OC(=O)CC(CC(=O)O)C(=O)O)C(C)CCCC (centres unmarked) : 0,0

Switching to the query record.
Task: Entry under review: CCCCCCCCC=CCCCCCCCCCCCCCC(=O)NC(C)C(O)CC(O)CCCCC(O)CC(C)CC(OC(=O)CC(CC(=O)O)C(=O)O)C(OC(=O)CC(CC(=O)O)C(=O)O)C(C)CCCC (centres unmarked) . Reported N-acyl-derivative in tissue sample, mean?
Output: 0,0

* * *

Collected N-acyl-derivative in tissue sample, mean values appear next to each entry.
measurement_protocol: In vivo formation of NAFB1 and NAHFB1 in rat kidney and liver (HPLC-ESI-MS/MS)
Design: unit not given here
condition_info: Liver; treatment FB1 1 mg/kg BW ip, 5 days

Recorded results for 8 compounds are shown here.
CCCCCCCCCCCCCCCCCCCCCCCC(=O)N[C@@H](C)[C@@H](O)C[C@H](O)CCCC[C@@H](O)C[C@H](C)C[C@H](O)[C@H](O)[C@H](C)CCCC : 0,0
CCCCCCCCC=CCCCCCCCCCCCCCC(=O)NC(C)C(O)CC(O)CCCCC(O)CC(C)CC(OC(=O)CC(CC(=O)O)C(=O)O)C(OC(=O)CC(CC(=O)O)C(=O)O)C(C)CCCC (stereo not drawn) : 4,9
CCCCCCCCCCCCCCCCCCCCCC(=O)N[C@@H](C)[C@@H](O)C[C@H](O)CCCC[C@@H](O)C[C@H](C)C[C@H](O)[C@H](O)[C@H](C)CCCC : 0,0
CCCCCCCCCCCCCCCCCCCC(=O)NC(C)C(O)CC(O)CCCCC(O)CC(C)CC(OC(=O)CC(CC(=O)O)C(=O)O)C(OC(=O)CC(CC(=O)O)C(=O)O)C(C)CCCC (stereo not drawn) : 0,0
CCCCCCCCCCCCCCCC(=O)NC(C)C(O)CC(O)CCCCC(O)CC(C)CC(OC(=O)CC(CC(=O)O)C(=O)O)C(OC(=O)CC(CC(=O)O)C(=O)O)C(C)CCCC (stereo not drawn) : 5,2
CCCCCCCCCCCCCCCCCCCCCCCC(=O)NC(C)C(O)CC(O)CCCCC(O)CC(C)CC(OC(=O)CC(CC(=O)O)C(=O)O)C(OC(=O)CC(CC(=O)O)C(=O)O)C(C)CCCC (stereo not drawn) : 4,7
CCCCCCCCCCCCCCCC(=O)N[C@@H](C)[C@@H](O)C[C@H](O)CCCC[C@@H](O)C[C@H](C)C[C@H](O)[C@H](O)[C@H](C)CCCC : 0,2
CCCCCCCCCCCCCCCCCCCCCC(=O)NC(C)C(O)CC(O)CCCCC(O)CC(C)CC(OC(=O)CC(CC(=O)O)C(=O)O)C(OC(=O)CC(CC(=O)O)C(=O)O)C(C)CCCC (stereo not drawn) : 2,6

Switching to the query record.
Task: Entry under review: CCCCCCCCCCCCCCCCCC(=O)N[C@@H](C)[C@@H](O)C[C@H](O)CCCC[C@@H](O)C[C@H](C)C[C@H](O)[C@H](O)[C@H](C)CCCC . Reported N-acyl-derivative in tissue sample, mean?
Output: 0,0
